Target: human CD33 I47S (human, UniProt P20138 18-364)
Sequence (P20138 18-364 I47S limits assumed): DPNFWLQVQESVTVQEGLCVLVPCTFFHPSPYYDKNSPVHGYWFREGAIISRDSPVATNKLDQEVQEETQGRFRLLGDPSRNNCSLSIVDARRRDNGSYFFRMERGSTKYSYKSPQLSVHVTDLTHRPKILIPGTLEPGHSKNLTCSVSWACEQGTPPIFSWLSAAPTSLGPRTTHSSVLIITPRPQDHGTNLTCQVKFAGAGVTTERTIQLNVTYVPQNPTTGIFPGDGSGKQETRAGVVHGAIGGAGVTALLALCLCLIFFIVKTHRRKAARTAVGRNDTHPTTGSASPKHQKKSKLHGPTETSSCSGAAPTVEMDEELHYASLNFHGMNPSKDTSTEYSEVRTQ
Experiment: flow cytometry, mutant on cells, IgG
parameter: Mean % WT Binding (% WT binding)

- Refmab #3 (antibody, human IgG1, V domains shown, Tested in IgG format; human IgG1 Fc silent (PG-LALA)) VH: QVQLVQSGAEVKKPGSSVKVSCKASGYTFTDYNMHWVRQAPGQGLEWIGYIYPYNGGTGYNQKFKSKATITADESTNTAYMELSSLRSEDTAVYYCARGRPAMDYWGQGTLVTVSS VL: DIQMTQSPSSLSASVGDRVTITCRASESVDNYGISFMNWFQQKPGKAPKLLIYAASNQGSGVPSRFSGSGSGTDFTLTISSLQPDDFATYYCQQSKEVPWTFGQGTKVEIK: 94.9
- Refmab #1 (antibody, human IgG1, V domains shown, Tested in IgG format; human IgG1 (Absolute Antibody hP67.6, Cat. No. Ab00283-10.0); also called hP67.6) VH: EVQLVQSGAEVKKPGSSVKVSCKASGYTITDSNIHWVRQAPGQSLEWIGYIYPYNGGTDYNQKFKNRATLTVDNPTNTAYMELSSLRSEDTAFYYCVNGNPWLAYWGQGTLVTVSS VL: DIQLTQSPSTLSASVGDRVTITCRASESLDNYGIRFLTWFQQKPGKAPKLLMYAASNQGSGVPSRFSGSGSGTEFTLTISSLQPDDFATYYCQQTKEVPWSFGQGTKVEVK: 105
- Refmab #2 (antibody, human IgG1, V domains shown, Tested in IgG format; human IgG1 Fc silent (PG-LALA)) VH: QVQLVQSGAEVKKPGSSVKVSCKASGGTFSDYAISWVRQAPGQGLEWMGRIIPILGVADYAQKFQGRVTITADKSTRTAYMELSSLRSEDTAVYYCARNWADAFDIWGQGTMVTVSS VL: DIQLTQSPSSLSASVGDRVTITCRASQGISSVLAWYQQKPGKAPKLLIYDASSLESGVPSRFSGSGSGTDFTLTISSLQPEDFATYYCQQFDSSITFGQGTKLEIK: 3.4
- Refmab #4 (antibody, human IgG1, V domains shown, Tested in IgG format; human IgG1 Fc silent (PG-LALA)) VH: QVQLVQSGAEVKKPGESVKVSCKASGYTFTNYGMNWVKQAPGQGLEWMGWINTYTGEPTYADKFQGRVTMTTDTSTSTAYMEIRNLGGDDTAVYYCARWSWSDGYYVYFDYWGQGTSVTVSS VL: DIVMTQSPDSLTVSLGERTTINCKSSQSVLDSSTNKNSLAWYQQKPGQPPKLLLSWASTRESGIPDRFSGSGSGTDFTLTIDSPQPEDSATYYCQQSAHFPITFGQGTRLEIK: 90.1
